Data provenance: ChEMBL document CHEMBL5226282

# testedTarget: Toll-like receptor 1/2 (Homo sapiens, UniProt O60603+Q15399)
# Sequence (O60603 whole entry): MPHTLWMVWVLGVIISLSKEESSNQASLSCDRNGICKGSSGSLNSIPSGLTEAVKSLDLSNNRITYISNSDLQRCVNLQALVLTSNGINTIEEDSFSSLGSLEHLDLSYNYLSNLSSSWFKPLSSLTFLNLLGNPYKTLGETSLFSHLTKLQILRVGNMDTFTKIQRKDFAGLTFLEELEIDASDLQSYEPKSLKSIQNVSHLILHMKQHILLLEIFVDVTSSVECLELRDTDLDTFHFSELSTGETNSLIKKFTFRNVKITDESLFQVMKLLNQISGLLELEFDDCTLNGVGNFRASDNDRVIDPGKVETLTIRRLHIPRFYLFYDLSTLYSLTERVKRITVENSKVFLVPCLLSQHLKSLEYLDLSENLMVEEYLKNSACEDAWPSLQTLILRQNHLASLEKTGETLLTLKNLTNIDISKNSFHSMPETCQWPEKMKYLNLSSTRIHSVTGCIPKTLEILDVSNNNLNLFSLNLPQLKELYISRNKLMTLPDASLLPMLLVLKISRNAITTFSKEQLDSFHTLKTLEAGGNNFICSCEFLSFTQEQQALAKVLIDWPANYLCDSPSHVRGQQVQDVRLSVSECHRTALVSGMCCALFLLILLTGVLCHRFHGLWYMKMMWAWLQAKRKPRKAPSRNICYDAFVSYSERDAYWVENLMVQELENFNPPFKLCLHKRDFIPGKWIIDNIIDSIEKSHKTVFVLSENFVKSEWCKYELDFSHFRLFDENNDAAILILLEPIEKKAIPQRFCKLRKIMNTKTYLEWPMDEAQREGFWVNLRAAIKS
# Sequence (Q15399 whole entry): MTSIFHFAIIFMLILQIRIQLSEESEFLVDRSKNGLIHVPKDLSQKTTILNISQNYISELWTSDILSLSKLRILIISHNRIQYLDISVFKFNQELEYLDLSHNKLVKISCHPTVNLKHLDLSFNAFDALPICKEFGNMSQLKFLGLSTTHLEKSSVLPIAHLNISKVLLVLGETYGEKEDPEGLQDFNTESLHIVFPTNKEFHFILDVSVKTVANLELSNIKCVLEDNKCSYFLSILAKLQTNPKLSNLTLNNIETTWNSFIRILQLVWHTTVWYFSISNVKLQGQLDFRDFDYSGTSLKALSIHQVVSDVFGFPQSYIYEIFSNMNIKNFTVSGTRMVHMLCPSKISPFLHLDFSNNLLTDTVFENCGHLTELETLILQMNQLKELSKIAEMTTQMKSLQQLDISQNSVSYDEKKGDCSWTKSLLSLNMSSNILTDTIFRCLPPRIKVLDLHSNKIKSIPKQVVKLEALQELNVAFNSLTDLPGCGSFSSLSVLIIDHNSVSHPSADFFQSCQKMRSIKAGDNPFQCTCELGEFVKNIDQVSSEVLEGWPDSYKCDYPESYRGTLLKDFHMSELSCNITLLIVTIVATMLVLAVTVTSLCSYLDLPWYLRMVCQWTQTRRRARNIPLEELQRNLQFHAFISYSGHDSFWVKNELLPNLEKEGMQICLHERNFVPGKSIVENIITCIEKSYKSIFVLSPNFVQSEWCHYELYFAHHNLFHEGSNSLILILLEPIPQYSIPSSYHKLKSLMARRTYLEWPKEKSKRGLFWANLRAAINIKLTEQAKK
# assayName: Agonist activity at TLR2/TLR1 in human THP-1 cells
# Format: cell-based
valueType: EC50 (nM)

(A) CCCNC(=O)[C@@H]1CN(C(=O)c2ccc(C(=O)N3C[C@@H](C(=O)N[C@H]4C[C@@H]4c4ccccc4)[C@H](C(=O)N[C@@H]4C[C@H]4c4ccccc4)C3)cc2)C[C@H]1C(=O)N[C@H]1C[C@@H]1c1ccccc1
(B) O=C(N[C@H]1C[C@@H]1c1ccccc1)[C@@H]1CN(C(=O)c2cc(Cl)c(C(=O)N3C[C@@H](C(=O)N[C@H]4C[C@@H]4c4ccccc4)[C@H](C(=O)N[C@H]4C[C@@H]4c4ccccc4)C3)cc2Cl)C[C@H]1C(=O)N[C@H]1C[C@@H]1c1ccccc1
(C) CCCCCCCCNC(=O)[C@@H]1CN(C(=O)c2ccc(C(=O)N3C[C@@H](C(=O)NCCCCCCCC)[C@H](C(=O)N[C@@H]4C[C@H]4c4ccccc4)C3)cc2)C[C@H]1C(=O)N[C@@H]1C[C@H]1c1ccccc1
Sort low-to-high on EC50, please. Please list the labels in the order you were asked to rank them.
C, A, B
(C: 3.5 nM, A: 17 nM, B: 360 nM)
